- assay-overview: Pharmacokinetics after IV and oral administration
- Assay type: in vivo, Sprague-Dawley (SD) rats
- condition-notes: Sprague-Dawley, rat, plasma; PO 10 mg/kg vs IV 1 mg/kg, SD rats; read-out: F (absolute oral bioavailability)
endpoint-name: bioavailability (%)
Numeric only. Scale: %

Task item: Would you mind telling me what bioavailability value was observed for Oc1ccccc1C(c1cccnc1)N1CCN(c2cccc(Cl)c2Cl)CC1 (stereo not shown) ?
Reply: 37.2

###

- assay-overview: Pharmacokinetics after IV and oral administration
- Format: in vivo, Sprague-Dawley (SD) rats
- condition-notes: Sprague-Dawley, rat, plasma; PO 10 mg/kg, SD rats
endpoint-name: Tmax (min)
Numeric only. Scale: min

Task item: Would you mind telling me what Tmax value was observed for Oc1ccccc1C(c1cccnc1)N1CCN(c2cccc(Cl)c2Cl)CC1 (stereo not shown) [NCK] ?
Reply: 19.8

###

- Test system: BT549 cells
- assay-overview: AlamarBlue cell viability, 3D Matrigel culture
- Assay type: cell-based, human
- condition-notes: Homo sapiens, BT-549; BT549, 3D Matrigel, AlamarBlue
endpoint-name: IC50 (nM)
Numeric only. Scale: nM

Task item: Would you mind telling me what IC50 value was observed for Oc1ccccc1C(c1cccnc1)N1CCN(c2cccc(Cl)c2Cl)CC1 (stereo not shown) ?
Reply: 309

###

- assay-overview: Pharmacokinetics after IV and oral administration
- Type: in vivo, Sprague-Dawley (SD) rats
- condition-notes: Sprague-Dawley, rat, plasma; IV 1 mg/kg, SD rats
endpoint-name: AUC(0-inf)

Task item: Would you mind telling me what AUC(0-inf) value was observed for Oc1ccccc1C(c1cccnc1)N1CCN(c2cccc(Cl)c2Cl)CC1 (stereo not shown) ?
Reply: 0.288 µg·h/mL

###

- assay-overview: Pharmacokinetics after IV and oral administration
- Assay type: in vivo, Sprague-Dawley (SD) rats
- condition-notes: Sprague-Dawley, rat, plasma; IV 1 mg/kg, SD rats
endpoint-name: half-life (h)
Numeric only. Scale: h

Task item: Would you mind telling me what half-life value was observed for Oc1ccccc1C(c1cccnc1)N1CCN(c2cccc(Cl)c2Cl)CC1 (stereo not shown) ?
Reply: 3.35

###

- assay-overview: Pharmacokinetics after IV and oral administration
- Type: in vivo, Sprague-Dawley (SD) rats
- condition-notes: Sprague-Dawley, rat, plasma; IV 1 mg/kg, SD rats
endpoint-name: C0 (ng/mL)
Numeric only. Scale: ng/mL

Task item: Would you mind telling me what C0 value was observed for Oc1ccccc1C(c1cccnc1)N1CCN(c2cccc(Cl)c2Cl)CC1 (stereo not shown) [NCK] ?
Reply: 554

###

- assay-overview: Pharmacokinetics after IV and oral administration
- Assay type: in vivo, Sprague-Dawley (SD) rats
- condition-notes: Sprague-Dawley, rat, plasma; PO 10 mg/kg, SD rats
- Procedure: The pharmacokinetics of NCK were determined via intravenous (IV) and oral administration in Sprague-Dawley (SD) rats (Supplementary Fig. 7). Supplementary Figure 7: (A) Plasma concentration of NCK after intravenous (IV, 1 mg/kg) (red) or oral (PO, 10 mg/kg) (blue) administration in SD rats. Results represent the mean ± SD of three animals. (B) Pharmacokinetic parameters of NCK in plasma after IV injection (1 mg/kg) or oral administration (10 mg/kg). […]
endpoint-name: AUC(0-t) (ng·h/mL)
Numeric only. Scale: ng·h/mL

Task item: Would you mind telling me what AUC(0-t) value was observed for Oc1ccccc1C(c1cccnc1)N1CCN(c2cccc(Cl)c2Cl)CC1 (stereo not shown) ?
Reply: 1050

###

- assay-overview: Pharmacokinetics after IV and oral administration
- Format: in vivo, Sprague-Dawley (SD) rats
- condition-notes: Sprague-Dawley, rat, plasma; PO 10 mg/kg, SD rats
endpoint-name: Cmax

Task item: Would you mind telling me what Cmax value was observed for Oc1ccccc1C(c1cccnc1)N1CCN(c2cccc(Cl)c2Cl)CC1 (stereo not shown) [NCK] ?
Reply: 346 ng/mL

###

- target-system: Recombinant human BAD (Homo sapiens, UniProt Q92934)
- Sequence (Q92934 whole entry): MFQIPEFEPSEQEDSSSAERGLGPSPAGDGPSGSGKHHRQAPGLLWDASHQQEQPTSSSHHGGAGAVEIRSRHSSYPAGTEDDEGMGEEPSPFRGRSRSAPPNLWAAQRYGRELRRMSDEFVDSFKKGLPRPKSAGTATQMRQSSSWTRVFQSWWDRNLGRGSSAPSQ
- assay-overview: SPR (BIAcore) with BAD immobilized on sensor chip
- condition-notes: analyte 1.25–160 μM, read-out: Affinity (KD)
endpoint-name: pKd
Field pKd (float): negative decimal logarithm of the concentration in molar.

Task item: Would you mind telling me what pKd value was observed for Oc1ccccc1C(c1cccnc1)N1CCN(c2cccc(Cl)c2Cl)CC1 (stereo not shown) [NCK] ?
Reply: 7.32

# credit: paper PMC10781691
